Test: Therapeutic index, ratio of LD50 for CF1 mouse to ED50 for antiarrhythmic activity in CF1 mouse
Details: in vivo
readout: selectivity ratio
Keep it simple and answer with nothing but the number.

INSERT INTO assay_data (compound, quantitativeresult) VALUES
  ('CC(C)C1C2CC(CN(C)C2)CN1C.Cl (centres undefined)', 1.46),
  ('Cl.c1ccc(CN2CC3CC(C2)CN(Cc2ccccc2)C3)cc1', 1.24),
  ('CC(C)N(CCC(C(N)=O)(c1ccccc1)c1ccccn1)C(C)C (centres undefined) [DISOPYRAMIDE]', 8.4),
  ('CN1CC2CC(C1)CN(Cc1ccccc1)C2.CS(=O)(=O)O', 1.23),
  ('CN1CC2CC(C1)CN(C(c1ccccc1)c1ccccc1)C2.Cl', 0.87),
  ('CCCCN1CC2CC(C1)CN(CCCC)C2.Cl', 1.23),
  ('C1CCN2C[C@@H]3C[C@@H](CN4CCCC[C@@H]34)[C@H]2C1.O.O.O.O.O.O=S(=O)(O)O [SPARTEINE SULFATE]', 0.89),
  ('Br.CCCCN1CC2CC(CN(C)C2)C1', 1.08);

// moving on: another record for selectivity ratio
# input compound: "CCCCN1CC2CC(C1)CN(Cc1ccccc1)C2.Cl" ; wanted: its selectivity ratio
1.25
